Biological target: T1, formyl peptide receptor (UniProt P21462 1-350, limits assumed)
T1 sequence (looked up): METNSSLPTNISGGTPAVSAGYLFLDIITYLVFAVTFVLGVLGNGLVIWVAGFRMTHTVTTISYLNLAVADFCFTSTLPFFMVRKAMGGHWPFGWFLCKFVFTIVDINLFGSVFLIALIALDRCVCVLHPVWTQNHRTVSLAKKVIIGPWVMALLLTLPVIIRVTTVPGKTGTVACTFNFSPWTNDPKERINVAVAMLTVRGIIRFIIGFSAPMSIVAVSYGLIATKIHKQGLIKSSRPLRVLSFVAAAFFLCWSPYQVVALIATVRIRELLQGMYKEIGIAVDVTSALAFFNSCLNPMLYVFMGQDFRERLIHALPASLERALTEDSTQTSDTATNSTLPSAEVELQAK
Experiment: cell-based or functional assay
Where no end group is shown, it is not given here. [ ]: non-standard residue; d: D form.
[Ca^2+]i increase in FPR-expressing RBL-2H3 cells values, listed per item

INSERT INTO measurements (binder, measured) VALUES
  ('WKYMVW-NH2 [Trp-Lys-Tyr-Met-Val-Trp-NH2]', '> 20 µM');

Enquiry: I am curious: what [Ca^2+]i increase in FPR-expressing RBL-2H3 cells value has been reported for WKYMVE-NH2 [Trp-Lys-Tyr-Met-Val-Glu-NH2] ?
Return: > 20 µM

Enquiry: # query: [Ca^2+]i increase in FPR-expressing RBL-2H3 cells of entry WKYMG[dM]-NH2 (N-terminus assumed; SMILES CSCC[C@H](NC(=O)[C@H](Cc1ccc(O)cc1)NC(=O)[C@H](CCCCN)NC(=O)[C@@H](N)Cc1c[nH]c2ccccc12)C(=O)NCC(=O)N[C@H](CCSC)C(N)=O) [Trp-Lys-Tyr-Met-Gly-D-Met-NH2]
Return: > 20 µM
